tested system: Receptor-interacting serine/threonine-protein kinase 2 (Homo sapiens) (UniProt O43353)
Sequence (O43353 whole entry, looked up): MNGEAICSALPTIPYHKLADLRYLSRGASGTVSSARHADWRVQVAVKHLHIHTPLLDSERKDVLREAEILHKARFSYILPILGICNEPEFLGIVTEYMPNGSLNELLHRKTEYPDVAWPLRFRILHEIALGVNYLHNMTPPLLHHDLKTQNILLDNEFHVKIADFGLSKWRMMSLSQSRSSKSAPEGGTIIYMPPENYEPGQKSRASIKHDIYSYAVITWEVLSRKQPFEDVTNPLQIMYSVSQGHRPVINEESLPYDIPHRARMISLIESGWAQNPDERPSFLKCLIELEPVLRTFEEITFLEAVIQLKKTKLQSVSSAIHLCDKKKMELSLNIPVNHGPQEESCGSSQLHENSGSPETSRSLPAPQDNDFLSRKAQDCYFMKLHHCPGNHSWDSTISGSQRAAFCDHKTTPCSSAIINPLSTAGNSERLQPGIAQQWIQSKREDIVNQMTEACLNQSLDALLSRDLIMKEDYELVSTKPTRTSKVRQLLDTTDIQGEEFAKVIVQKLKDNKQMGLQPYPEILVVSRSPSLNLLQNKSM
protocol notes: inhibitors of RIPK2 association with NOD2 – fluorescence, CHO cells, BLA complementation, primary screen (AID 624267);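 also: 0% = vehicle only and 100% = reference blocker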
assay setup: CHO BLA complementation NOD2-RIPK2, CCF4 ratio; at 4.98 µM; hits give high values
Out of some 360,000 compounds screened, about 1,400 (0.39%) were called active. The entries come from a sample that favours actives as a whole.
observed property: inhibition (%)
Dear colleague, please return just the value in %, with no unit written.

Below are worked cases with known answers.
>  <compound>
CCc1nn(CCCC(=O)Nc2ccc(C)cc2C)c(=O)c2cc3occc3n12

>  <tested system>
Receptor-interacting serine/threonine-protein kinase 2 (Homo sapiens) (UniProt O43353)

>  <inhibition [%]>
4.65

$$$$
>  <compound>
CC1CC(C)CN(S(=O)(=O)c2cccc(C(=O)N3C(=O)c4cccc(N)c4C3=O)c2)C1 (stereo not given)

>  <tested system>
Receptor-interacting serine/threonine-protein kinase 2 (Homo sapiens) (UniProt O43353)

>  <inhibition [%]>
30.1

$$$$
>  <compound>
O=C(CSc1ncn[nH]1)Nc1nc2c(F)c(F)c(F)cc2s1

>  <tested system>
Receptor-interacting serine/threonine-protein kinase 2 (Homo sapiens) (UniProt O43353)

>  <inhibition [%]>
2.77

$$$$
>  <compound>
CCOc1ccc(-c2nnc3ccc(SC)nn23)cc1

>  <tested system>
Receptor-interacting serine/threonine-protein kinase 2 (Homo sapiens) (UniProt O43353)

>  <inhibition [%]>
9.56

$$$$
>  <compound>
CNC(=O)n1ccc(C(=O)N2CCCCC2)n1

>  <tested system>
Receptor-interacting serine/threonine-protein kinase 2 (Homo sapiens) (UniProt O43353)

>  <inhibition [%]>
1.22

$$$$
>  <compound>
COc1ccc(NC(C)=O)cc1NC(=O)CN1CCN(C2c3ccccc3-c3ccccc32)CC1

>  <tested system>
Receptor-interacting serine/threonine-protein kinase 2 (Homo sapiens) (UniProt O43353)

>  <inhibition [%]>
-1.12

$$$$
>  <compound>
O=C(CSc1ncn[nH]1)Nc1nc(-c2cccc([N+](=O)[O-])c2)cs1

>  <tested system>
Receptor-interacting serine/threonine-protein kinase 2 (Homo sapiens) (UniProt O43353)

>  <inhibition [%]>
21.5

$$$$
>  <compound>
O=S(=O)(c1ccc(OCC(O)CN2CCN(c3ccccc3Cl)CC2)cc1)N1CCOCC1 (stereo not given)

>  <tested system>
Receptor-interacting serine/threonine-protein kinase 2 (Homo sapiens) (UniProt O43353)

>  <inhibition [%]>
-2.63

$$$$
>  <compound>
CN1CCN(/N=C/c2ccc(-c3ccc([N+](=O)[O-])cc3)o2)CC1

>  <tested system>
Receptor-interacting serine/threonine-protein kinase 2 (Homo sapiens) (UniProt O43353)

>  <inhibition [%]>
21.4

$$$$

# inhibition of CC(=O)N1CCN(S(=O)(=O)c2cccc(C(=O)NC3CCC(C)CC3)c2)CC1 (stereo not given) = -9.28

---

tested system: Receptor-interacting serine/threonine-protein kinase 2 (Homo sapiens)
protocol notes: inhibitors of RIPK2 association with NOD2 – fluorescence, CHO cells, BLA complementation, primary screen (AID 624267);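 also: 0% = vehicle only and 100% = reference blocker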
assay setup: CHO BLA complementation NOD2-RIPK2, CCF4 ratio; at 4.98 µM; hits give high values
Hit rate of the full screen: of about 360,000 compounds, about 1,400 (0.39%) were called active. Shown is part of a subset that was picked to be rich in actives.
Measured inhibition accompanies every entry in the list below.

>  <molecule>
O=S(=O)(c1ccccc1)N(Cc1cccc(F)c1)c1ccccc1

>  <inhibition>
-10.2% (inactive)

$$$$

The record that follows has no inhibition shown yet.
# inhibition of CCCOC(=O)c1ccc(N2C(=O)c3ccccc3C2=O)cc1 = 1.19% (inactive)

Data origin: PubChem BioAssay AID624267
